The origin of these recorded values is the supplement of paper PMC13380429.

Test system: Vero E6 infected with SARS-CoV-2
EXPERIMENT_DESCRIPTION: SARS-CoV-2 infection rate relative to infected DMSO; higher = more infection, active = 60 or less
CONDITION_INFO: 24 h
READOUT_LABEL: SARS-CoV-2 infection rate (%)
One number for each entry, in %.

MOLECULE	TARGET_OR_TEST_SYSTEM	READOUT_UNIT	SARS-CoV-2 infection rate
N#Cc1cn([C@@H]2O[C@H](CO)[C@@H](O)[C@H]2O)c2ncnc(N)c12 [toyocamycin] (0.833333 µM)	Vero E6 infected with SARS-CoV-2	%	104
Cc1ccc(OCCSc2ncccn2)c(Br)c1 (10 µM)	Vero E6 infected with SARS-CoV-2	%	104
Cc1oc2ccccc2c1CNC(=O)NCc1cccs1 (10 µM)	Vero E6 infected with SARS-CoV-2	%	100
OCc1c[nH]c2ccccc12 [indole-3-carbinol] (10 µM)	Vero E6 infected with SARS-CoV-2	%	94.5
O=C(O)Cc1cccnc1C(=O)O [homoquinolinic-acid] (10 µM)	Vero E6 infected with SARS-CoV-2	%	102

Please give SARS-CoV-2 infection rate for each item listed below.
1. CC(C)(Oc1ccc(CCNC(=O)c2ccc(Cl)cc2)cc1)C(=O)O [bezafibrate] (10 µM)
2. Cc1c(S(=O)(=O)O)oc2c1C(=O)C(=O)c1c-2ccc2c1CCCC2(C)C [sodium-tanshinone-II-A-sulfonate] (10 µM)
3. C=CC(=O)Nc1cccc(Nc2nc(Nc3ccc(NC4CN(CCF)C4)cc3OC)ncc2C(F)(F)F)c1 (0.833333 µM)
4. Cc1cccc(C)c1NC1=NCCCS1 [xylazine] (10 µM)

1: 104; 2: 110; 3: 118; 4: 108

---

System: Vero E6 infected with SARS-CoV-2
EXPERIMENT_DESCRIPTION: morphology score (similarity to uninfected cells); higher = more like uninfected cells
CONDITION_INFO: 24 h
Could you please report measured morphology score for the items listed next?

Worked cases, answers included:
COMPOUND	VALUE
Cc1ncc(CN2CC=C(c3ccccc3)CC2)c(N)n1 (10 µM)	0.0617
CN(C(=O)c1ccc(F)cc1C(F)(F)F)C1CCN(c2nnc(-c3ccnn3C)c3ccccc23)CC1 [taladegib] (10 µM)	0.0832
O=C(Nc1c[nH]nc1-c1nc2ccc(CN3CCOCC3)cc2[nH]1)NC1CC1 (0.833333 µM)	0.0293
COCC1(CO)C(=O)C2CCN1CC2 (configuration not stated) (10 µM)	0.212
CC(C)(C)c1ccc(-c2nc3ccccc3[nH]2)cc1 (10 µM)	0.557

Please give morphology score for each item listed below.
1. CCNC(=O)[C@@H]1CCCN1C(=O)[C@H](CCCNC(=N)N)NC(=O)[C@H](CC(C)C)NC(=O)[C@@H](CC(C)C)NC(=O)[C@H](Cc1ccc(O)cc1)NC(=O)[C@H](CO)NC(=O)[C@H](Cc1c[nH]c2ccccc12)NC(=O)[C@H](Cc1c[nH]cn1)NC(=O)[C@@H]1CCC(=O)N1 [leuprolide] (10 µM)
2. CC(=O)N(CC(O)CN(C(C)=O)c1c(I)c(C(=O)NCC(O)CO)c(I)c(C(=O)NCC(O)CO)c1I)c1c(I)c(C(=O)NCC(O)CO)c(I)c(C(=O)NCC(O)CO)c1I (configuration not stated) [iodixanol] (10 µM)
3. COc1cc2ncnc(Nc3ccc(Oc4ccccc4)cc3)c2cc1OC [SRC-kinase-inhibitor-I] (0.833333 µM)
4. CC(=O)CC/C=C(\C)CC/C=C(\C)CC/C=C(\C)CCC=C(C)C [teprenone] (10 µM)
5. CC(C)(CO)Cc1cc(C(C)(C)C)c(O)c(C(C)(C)C)c1 (10 µM)

1. -0.258
2. -0.0966
3. 0.0162
4. 0.0677
5. -0.127

Please give morphology score for each item listed below.
1. CCN(CC)CCCC(C)Nc1ccnc2cc(Cl)ccc12 (configuration not stated) [chloroquine] (10 µM)
2. NCCc1c[nH]c2ccc(C(N)=O)cc12 [5-carboxamidotryptamine] (10 µM)

1. 0.554
2. 0.0259

Please give morphology score for each item listed below.
1. CCCC[P+](CCCC)(CCCC)Cc1ccc(NC(=O)[C@H](Cc2ccc3ccccc3c2)N/C(=N/C2CCCCC2)NC2CCCCC2)cc1 (10 µM)
2. Cc1c(C)c2c(c(C)c1O)CC[C@@](C)(CCC[C@H](C)CCC[C@H](C)CCCC(C)C)O2 [vitamin-E] (10 µM)
3. C[N+](C)(C)CCOC(=O)CCC(=O)OCC[N+](C)(C)C [succinylcholine-chloride] (10 µM)
4. S=P(N1CC1)(N1CC1)N1CC1 [thiotepa] (10 µM)
5. COc1ccc2cc1Oc1ccc(cc1)C[C@H]1c3cc(c(OC)cc3CCN1C)Oc1c(OC)c(OC)cc3c1[C@H](C2)N(C)CC3 [tetrandrine] (10 µM)

[0.122, -0.299, -0.0136, 0.127, 0.509]
